Every entry's value here was drawn from patent US9175357B2.

- system name: PLK1 PBD protein (residues 367-603) (Homo sapiens (Human), UniProt P53350)
- Sequence (P53350 367-603): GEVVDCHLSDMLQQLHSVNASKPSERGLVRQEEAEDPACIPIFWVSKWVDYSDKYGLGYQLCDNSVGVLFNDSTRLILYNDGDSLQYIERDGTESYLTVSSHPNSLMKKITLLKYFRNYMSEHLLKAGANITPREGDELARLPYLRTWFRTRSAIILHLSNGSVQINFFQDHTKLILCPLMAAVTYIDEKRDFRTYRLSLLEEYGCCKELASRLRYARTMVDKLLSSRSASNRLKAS
- method description: Competitive fluorescence polarization (FP) binding assay, PLK1 PBD
- condition label: Table 2, FP assay; read-out: IC50
Numbered stars: 1 amine (or outer) side, 2 acyl side, 3 side chain; on linkers, the order of the positions; unused ones are H or OH. Square brackets hold non-standard residues; d marks the D form. Peptide text beside a SMILES is read from it. * marks the point of attachment. NMe4Abz = CN(c1ccc(C(=O)[*:2])cc1)[*:1]; pT = C[C@@H](OP(=O)(O)O)[C@H](N)C(=O)O; Benzoyl(4-OMe) = COc1ccc(C(=O)*)cc1; Benzoyl(4-Et) = CCc1ccc(C(=O)*)cc1; X1 = CCCCc1ccc(C(=O)*)cc1; X17 = CCCc1ccc(C(=O)*)cc1; X5 = CCCNc1ccc(C(=O)*)cc1; X9 = CCOc1ccc(C(=O)*)cc1; X4 = CSc1ccc(C(=O)*)cc1
measurement label: IC50 (µM)
Give your result in µM as a bare value.

Guide cases for IC50, answers given:
COc1ccc(C(=O)N[C@@H](CO)C(=O)N[C@H](C(=O)N2CCC[C@H]2C(=O)N[C@@H](CC(N)=O)C(=O)NCC(=O)N[C@@H](CC(C)C)C(=O)O)[C@@H](C)OP(=O)(O)O)cc1 [compound 5754] ({Benzoyl(4-OMe)}-S[pT]PNGL-OH) = 125
CSc1ccc(C(=O)N[C@@H](CO)C(=O)N[C@H](C(=O)N2CCC[C@H]2C(=O)N[C@@H](CC(N)=O)C(=O)NCC(=O)N[C@@H](CC(C)C)C(=O)O)[C@@H](C)OP(=O)(O)O)cc1 [compound 5791] (X4-S[pT]PNGL-OH) = 18.5
CCOc1ccc(C(=O)N[C@@H](CO)C(=O)N[C@H](C(=O)N2CCC[C@H]2C(=O)N[C@@H](CC(N)=O)C(=O)NCC(=O)N[C@@H](CC(C)C)C(=O)O)[C@@H](C)OP(=O)(O)O)cc1 [compound 5786] (X9-S[pT]PNGL-OH) = 64.7
CNc1ccc(C(=O)N[C@@H](CO)C(=O)N[C@H](C(=O)N2CCC[C@H]2C(=O)N[C@@H](CC(N)=O)C(=O)NCC(=O)N[C@@H](CC(C)C)C(=O)O)[C@@H](C)OP(=O)(O)O)cc1 [compound 5792] (NMe4Abz-S[pT]PNGL-OH) = 31.2
CCc1ccc(C(=O)N[C@@H](CO)C(=O)N[C@H](C(=O)N2CCC[C@H]2C(=O)N[C@@H](CC(N)=O)C(=O)NCC(=O)N[C@@H](CC(C)C)C(=O)O)[C@@H](C)OP(=O)(O)O)cc1 [compound 5788, 3G1-S[pT]PNGL (4-ethylbenzoic acid)] ({Benzoyl(4-Et)}-S[pT]PNGL-OH) = 16.5

Problem: Any idea what IC50 was measured for CCCc1ccc(C(=O)N[C@@H](CO)C(=O)N[C@H](C(=O)N2CCC[C@H]2C(=O)N[C@@H](CC(N)=O)C(=O)NCC(=O)N[C@@H](CC(C)C)C(=O)O)[C@@H](C)OP(=O)(O)O)cc1 [compound 5826] (X17-S[pT]PNGL-OH) ?
Solution: 10.8

Problem: Record request: IC50 value, item CCCNc1ccc(C(=O)N[C@@H](CO)C(=O)N[C@H](C(=O)N2CCC[C@H]2C(=O)N[C@@H](CC(N)=O)C(=O)NCC(=O)N[C@@H](CC(C)C)C(=O)O)[C@@H](C)OP(=O)(O)O)cc1 [compound 5830] (X5-S[pT]PNGL-OH)
Solution: 16.5

Problem: Quick one: IC50 of CCCCc1ccc(C(=O)N[C@@H](CO)C(=O)N[C@H](C(=O)N2CCC[C@H]2C(=O)N[C@@H](CC(N)=O)C(=O)NCC(=O)N[C@@H](CC(C)C)C(=O)O)[C@@H](C)OP(=O)(O)O)cc1 [compound 5827, 3G2-S[pT]PNGL (4-butylbenzoic acid)] (X1-S[pT]PNGL-OH) ?
Solution: 8.6

---

# reported IC50; entries follow
- system name: PLK1 PBD protein (residues 367-603) (Homo sapiens (Human), UniProt P53350)
- method description: Competitive fluorescence polarization (FP) binding assay, PLK1 PBD
Square brackets hold non-standard residues; d marks the D form. Peptide text beside a SMILES is read from it. * marks the point of attachment. X6 = Cc1c(C(=O)*)cc(-c2ccccc2)n1-c1ccccc1; pT = C[C@@H](OP(=O)(O)O)[C@H](N)C(=O)O; 1Naphthoyl = O=C(c1cccc2ccccc12)*
Unit µM implied. Number only.

CC(C)C[C@H](NC(=O)CNC(=O)[C@H](CC(N)=O)NC(=O)[C@@H]1CCCN1C(=O)[C@@H](NC(=O)[C@H](CO)NC(=O)c1cccc2ccccc12)[C@@H](C)OP(=O)(O)O)C(=O)O [compound 5753] (1Naphthoyl-S[pT]PNGL-OH) = 104

In the following, a different compound is considered.
Problem: GET /values?readout=IC50&item= Cc1c(C(=O)N[C@@H](CO)C(=O)N[C@H](C(=O)N2CCC[C@H]2C(=O)N[C@@H](CC(N)=O)C(=O)NCC(=O)N[C@@H](CC(C)C)C(=O)O)[C@@H](C)OP(=O)(O)O)cc(-c2ccccc2)n1-c1ccccc1 [compound 5599] (X6-S[pT]PNGL-OH)
Solution: 600

---

Documented IC50 across a set of compounds
- system name: PLK1 PBD protein (residues 367-603) (Homo sapiens (Human))
- method description: Competitive fluorescence polarization (FP) binding assay, PLK1 PBD
Square brackets hold non-standard residues; d marks the D form. Peptide text beside a SMILES is read from it. * marks the point of attachment. Quinoline(6-carbonyl) = O=C(c1ccc2ncccc2c1)*; X11 = O=C(c1cn(S(=O)(=O)c2ccccc2)c2ccccc12)*; X3 = Cc1ccc(-c2cn(CC(=O)*)c(=O)cn2)cc1; pT = C[C@@H](OP(=O)(O)O)[C@H](N)C(=O)O; X14 = COc1cccc(-c2cc(C(=O)*)[nH]n2)c1; X7 = Cc1ccc2c(c1)N(CC(=O)*)C(=O)CO2; X2 = Cc1nc(-c2ccc(C(=O)*)cc2)no1; X10 = COc1cc(C(=O)*)cc2c1OCCO2; X15 = COc1ccc(C(=O)*)c2ccccc12; X8 = Cc1cc2c(SCC(=O)*)ncnc2s1
Could you give me the number in µM? Just the number is fine.

Cc1ccc2c(c1)N(CC(=O)N[C@@H](CO)C(=O)N[C@H](C(=O)N1CCC[C@H]1C(=O)N[C@@H](CC(N)=O)C(=O)NCC(=O)N[C@@H](CC(C)C)C(=O)O)[C@@H](C)OP(=O)(O)O)C(=O)CO2 [compound 5594, 1G1-S[pT]PNGL] (X7-S[pT]PNGL-OH) = 350
COc1cccc(-c2cc(C(=O)N[C@@H](CO)C(=O)N[C@H](C(=O)N3CCC[C@H]3C(=O)N[C@@H](CC(N)=O)C(=O)NCC(=O)N[C@@H](CC(C)C)C(=O)O)[C@@H](C)OP(=O)(O)O)[nH]n2)c1 [compound 5593] (X14-S[pT]PNGL-OH) = 380
Cc1nc(-c2ccc(C(=O)N[C@@H](CO)C(=O)N[C@H](C(=O)N3CCC[C@H]3C(=O)N[C@@H](CC(N)=O)C(=O)NCC(=O)N[C@@H](CC(C)C)C(=O)O)[C@@H](C)OP(=O)(O)O)cc2)no1 [compound 5598, 1G2-S[pT]PNGL] (X2-S[pT]PNGL-OH) = 320
CC(C)C[C@H](NC(=O)CNC(=O)[C@H](CC(N)=O)NC(=O)[C@@H]1CCCN1C(=O)[C@@H](NC(=O)[C@H](CO)NC(=O)c1cn(S(=O)(=O)c2ccccc2)c2ccccc12)[C@@H](C)OP(=O)(O)O)C(=O)O [compound 5591] (X11-S[pT]PNGL-OH) = 375
COc1ccc(C(=O)N[C@@H](CO)C(=O)N[C@H](C(=O)N2CCC[C@H]2C(=O)N[C@@H](CC(N)=O)C(=O)NCC(=O)N[C@@H](CC(C)C)C(=O)O)[C@@H](C)OP(=O)(O)O)c2ccccc12 [compound 5756, 2G1-S[pT]PNGL] (X15-S[pT]PNGL-OH) = 99
Cc1cc2c(SCC(=O)N[C@@H](CO)C(=O)N[C@H](C(=O)N3CCC[C@H]3C(=O)N[C@@H](CC(N)=O)C(=O)NCC(=O)N[C@@H](CC(C)C)C(=O)O)[C@@H](C)OP(=O)(O)O)ncnc2s1 [compound 5595] (X8-S[pT]PNGL-OH) = 475

Problem: Could you share which IC50 value was measured for CC(C)C[C@H](NC(=O)CNC(=O)[C@H](CC(N)=O)NC(=O)[C@@H]1CCCN1C(=O)[C@@H](NC(=O)[C@H](CO)NC(=O)c1ccc2ncccc2c1)[C@@H](C)OP(=O)(O)O)C(=O)O [compound 5601] ({Quinoline(6-carbonyl)}-S[pT]PNGL-OH) ?
Solution: 400

Problem: Which value of IC50 has been reported for Cc1ccc(-c2cn(CC(=O)N[C@@H](CO)C(=O)N[C@H](C(=O)N3CCC[C@H]3C(=O)N[C@@H](CC(N)=O)C(=O)NCC(=O)N[C@@H](CC(C)C)C(=O)O)[C@@H](C)OP(=O)(O)O)c(=O)cn2)cc1 [compound 5603, 1G3-S[pT]PNGL] (X3-S[pT]PNGL-OH) in the records?
Solution: 250

Problem: # get_value(readout='IC50', item= COc1cc(C(=O)N[C@@H](CO)C(=O)N[C@H](C(=O)N2CCC[C@H]2C(=O)N[C@@H](CC(N)=O)C(=O)NCC(=O)N[C@@H](CC(C)C)C(=O)O)[C@@H](C)OP(=O)(O)O)cc2c1OCCO2 [compound 5604] (X10-S[pT]PNGL-OH) )
Solution: 300
